Tested on: NCI-H460 lung
Test: NCI tumour cell line growth inhibition, 48 h

- molecule: "c1ccc(-c2nc3ccccc3n3nnnc23)cc1"
  study_system: "NCI-H460 lung"
  relation_operator: ">"
  TGI / µM: 100
- molecule: "COP1(=S)OCC2CCC[C@@H]2O1 (some centres not stated)"
  study_system: "NCI-H460 lung"
  relation_operator: ">"
  TGI / µM: 100
- molecule: "COc1ccc2sc3c(NCCCNCCO)nc4ccccc4c3c(=O)c2c1"
  study_system: "NCI-H460 lung"
  relation_operator: "="
  TGI / µM: 2.96
- molecule: "Oc1ccccc1C=Nc1ccccc1N=Cc1ccccc1O"
  study_system: "NCI-H460 lung"
  relation_operator: ">"
  TGI / µM: 100
- molecule: "CC(C)C[C@H](NC(=O)[C@H](CCc1ccccc1)NC(=O)c1ccc2ccccc2n1)B(O)O"
  study_system: "NCI-H460 lung"
  relation_operator: "="
  TGI / µM: 2.47
- molecule: "Cc1csc2n(C)c(=O)c3ccccc3[n+]12"
  study_system: "NCI-H460 lung"
  relation_operator: ">"
  TGI / µM: 100
- molecule: "CC(C)c1ccc(O)c(=O)cc1"
  study_system: "NCI-H460 lung"
  relation_operator: "="
  TGI / µM: 81.4

----------
Tested on: SNB-19 CNS
Test: NCI tumour cell line growth inhibition, 48 h
parameter: TGI

- compound: "CC(=O)OC1=C2C(CC3C4CC=C5CC(OC(C)=O)CCC5(C)C4CCC23C)C2C(=O)N(Cc3ccccc3)C(=O)C2C1 (centres undefined)"
  result: "> 100 µM"
- compound: "CN1CCN(c2cc(Nc3cc(C4CC4)[nH]n3)nc(Nc3ccc(CC(=O)NCc4cccc(F)c4)cc3)n2)CC1"
  result: "23.4 µM"
- compound: "CCOC(=O)/C=C(/C(=O)OCC)n1ccc(=O)[nH]c1=O"
  result: "29.8 µM"
- compound: "CCCCCCCCCC(=O)N[C@H]1CCc2cc(OC)c(OC)c(OC)c2-c2ccc(SC)c(=O)cc21"
  result: "75 µM"
- compound: "Cc1ccc(CC(=O)Nc2ccc(NC(=O)CNC(=O)/C=C/c3ccc(-c4ccccc4)cc3)cc2C(=O)c2ccccc2)cc1"
  result: "20.3 µM"
- compound: "O=C(CC(=O)Nc1ccccc1Cl)NNC(Sc1ccccc1)c1cc(N=Nc2ccc(Br)cc2)ccc1O (centres undefined)"
  result: "> 10 µM"
- compound: "CC(C)(C)C(=O)OCC(COC(=O)C(C)(C)C)[N+](=O)[O-]"
  result: "> 100 µM"
- compound: "Cc1[nH]nc(C(=O)Nc2n[nH]c3ccccc23)c1[N+](=O)[O-]"
  result: "> 100 µM"
- compound: "C/C(NC(=O)c1ccccc1)=C(/C(=O)c1ccccc1)[C@@H]1OC(C)(C)O[C@@H]1[C@H]1COC(C)(C)O1"
  result: "> 100 µM"
- compound: "Clc1ccc(-c2cn(-c3ccccc3)c(-c3ccccc3)n2)c(Cl)c1"
  result: "> 42.6 µM"
- compound: "CC(C)(C)OC(=O)N1C/C=C\\C(=O)C2(OCCO2)c2ccccc21"
  result: "> 100 µM"
- compound: "CCOC(=O)/C=C1/Nc2cc(F)c(F)cc2NC1=O"
  result: "> 100 µM"
- compound: "COC(=O)c1cc2c(cc1Cl)SC(N(N(C)C)S(=O)(=O)c1ccc(Cl)cc1)=NS2(=O)=O"
  result: "50.2 µM"
- compound: "O=C(Nc1ccccc1F)c1ccc(NC2=C(Cl)C(=O)N(Cc3ccccc3)C2=O)cc1"
  result: "23.8 µM"
- compound: "O=C1CC(Cl)c2c(Cl)sc(Cl)c21 (centres undefined)"
  result: "24 µM"
- compound: "COC1=CCC2=C(CCN(C(=O)C3CCC3)C2Cc2ccc(OC)c(O)c2)C1 (centres undefined)"
  result: "> 100 µM"
- compound: "CCCN1C(=O)/C(=C(/O)C(=O)OCC)C(c2ccc(OC)c(OC)c2)C1=O (centres undefined)"
  result: "> 100 µM"
- compound: "C=CCNc1cccc2c1C(=O)c1ccccc1C2(O)CC=C (centres undefined)"
  result: "44.7 µM"
- compound: "COc1ccc(S(=O)(=O)N/N=C(\\C)CN2C(=O)c3ccccc3C2=O)cc1"
  result: "> 100 µM"
- compound: "COc1cccc(/C=N/n2c(Cc3ccc(Cl)cc3)n[nH]c2=O)c1"
  result: "67.8 µM"
- compound: "COc1ccc(/C=C/C(C(=O)O)C(=O)O)cc1"
  result: "> 100 µM"
- compound: "CCCCC#Cc1cccc(=O)o1"
  result: "> 100 µM"
- compound: "c1ccc2nn(C3CCCCO3)nc2c1 (centres undefined)"
  result: "> 100 µM"
- compound: "COc1cnnc2c(C)c(-c3ccccc3)nn12"
  result: "> 100 µM"
